The values you see were collected from patent US12466813B2.

# testTarget: RING1B-BMI1 (Homo sapiens)
# Sequence (Q99496 1-336): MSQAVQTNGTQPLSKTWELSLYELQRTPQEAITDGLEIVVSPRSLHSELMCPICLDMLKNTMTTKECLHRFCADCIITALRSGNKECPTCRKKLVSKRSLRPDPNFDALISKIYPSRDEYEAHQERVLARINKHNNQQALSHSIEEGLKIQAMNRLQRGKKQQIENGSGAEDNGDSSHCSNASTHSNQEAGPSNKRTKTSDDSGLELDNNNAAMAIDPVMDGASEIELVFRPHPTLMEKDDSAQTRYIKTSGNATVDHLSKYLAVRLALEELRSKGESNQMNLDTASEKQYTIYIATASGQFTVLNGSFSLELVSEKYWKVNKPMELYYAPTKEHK
# Sequence (P35226 1-326 partner): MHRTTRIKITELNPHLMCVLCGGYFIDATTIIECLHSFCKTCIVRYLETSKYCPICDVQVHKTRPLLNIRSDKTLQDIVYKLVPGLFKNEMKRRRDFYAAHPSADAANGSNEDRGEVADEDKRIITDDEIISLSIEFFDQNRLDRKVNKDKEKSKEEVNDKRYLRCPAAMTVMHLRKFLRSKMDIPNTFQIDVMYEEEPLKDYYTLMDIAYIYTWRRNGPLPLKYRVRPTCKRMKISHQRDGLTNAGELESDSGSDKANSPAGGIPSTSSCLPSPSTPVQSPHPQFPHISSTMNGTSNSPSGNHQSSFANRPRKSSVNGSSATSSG
# testDetails: KD classes of Table A (direct binding to Ring1B-Bmi1)
# runConditions: class given in Table A
Reported Kd is given for each of the following compounds.

So what does the record say about Kd for CC(C)c1c(-c2cccc3[nH]c(C(=O)O)cc23)[nH]c(C(=O)O)c1-c1c(Cl)ccc2[nH]ccc12 ?
< 20 µM

Query (compound): Cc1c[nH]c2cccc(-c3c(C(=O)O)[nH]c(-c4cccc5[nH]ccc45)c3C(C)C)c12 ; field requested: Kd
< 20 µM

Recorded Kd of CCc1c(-c2cccc3[nH]ccc23)[nH]c(C(=O)O)c1-c1ccc(N)cc1 , please.
> 100 µM

----------
# testTarget: RING1B-BMI1 (Homo sapiens, UniProt Q99496)
# testDetails: KD classes of Table A (direct binding to Ring1B-Bmi1)
# runConditions: class given in Table A
pKd: −log10 of the molar value.
Quick reference: pKd of the listed items.

CC(C)c1c(-c2cc(F)cc3[nH]cc(CCO)c23)[nH]c(C(=O)O)c1-c1c(Cl)ccc2[nH]ccc12    > 4.70

Can you look up the measured pKd of CC(C)CCOc1cc(-c2c(C(=O)O)[nH]c(-c3cc(F)cc4[nH]ccc34)c2C(C)C)c2cc[nH]c2c1 for me?
> 4.70

May I ask what pKd has been recorded for CCc1c(C(=O)O)[nH]c(-c2cccc3c2ccn3C)c1CC ?
< 4.00

I'd like to know its pKd. The compound in question is O=C(O)c1ccc(-c2ccc(Cl)cc2)[nH]1
< 4.00

Query: pKd; subject: CC(C)c1c(-c2cc(F)cc3[nH]ccc23)[nH]c(C(=O)O)c1-c1cccc2c1ccn2CS(N)(=O)=O
> 4.70

Need pKd of CC(C)c1c(-c2cc(F)cc3[nH]ccc23)[nH]c(C(=O)O)c1-c1ccnc2[nH]c(-c3nccs3)cc12 , thanks.
> 4.70

// query pKd value for entry O=C(O)c1ccc(-c2cccc(O)c2)[nH]1
< 4.00

I'd like to know its pKd. The compound in question is CCc1ccc2[nH]ccc2c1-c1c(C(=O)O)[nH]c(-c2cc(F)cc3[nH]ccc23)c1C(C)C
> 4.70
